Assay: protein stability index of a GFP-peptide fusion (GPS, HEK-293T) (PSI 1-6); higher = more stable;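 further: 24-mer peptide tiles fused after GFP, lentivirally expressed, FACS-sorted into six equal bins by GFP/DsRed ratio, decoded by Illumina sequencing, PSI is the read-weighted mean bin number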
Conditions: treatment: DMSO; c terminus: a fixed tail appended
quantityName: protein stability index
Give only the figure.

Examples with answers:
orderedResidues: DQKERCIIVRTTNKKYYKKFSIPD [DPCD]
quantityName: protein stability index
reportedValue: 2.95
--
orderedResidues: ASKDPREVREARDHKEPKEEINKN [EHMT1]
quantityName: protein stability index
reportedValue: 5.5
--
orderedResidues: LARVPKLDLKRQYDRVAQLDQLLH [CHGB]
quantityName: protein stability index
reportedValue: 2.15

Lab note: next sequence to report on.
// protein stability index lookup, key: GKIVGSLCAIAGVLTIALPVPVIV [KCNA1]
3.19

----------
Test: protein stability index of a GFP-peptide fusion (GPS, HEK-293T) (PSI 1-6); higher = more stable
Settings: treatment: MLN4924 1 uM, 8 h; c terminus: a fixed tail appended
Attribute: protein stability index
Give only the figure.

Examples with answers:
orderedResidues: DGNGGQFREVYVGKETMCTVDGLH [TRIM9]
protein stability index: 4.11
//
orderedResidues: DINGLRRILDELTLCKADLEAQVE [KRT36]
protein stability index: 3.14
//
orderedResidues: TPATTTEPPKPTFPAYTQSTASTT [ZNF207]
protein stability index: 5.1

// protein stability index lookup, key: AADIVNFLTVGSVLQMWHIVDKCT [ZBTB22]
3.65

// protein stability index lookup, key: SSKTITAEIPDGPPVVAHYDMSDT [C18orf25]
4.96

// protein stability index lookup, key: DNLKFSQEYESIDPGQQFTWEHSN [PTPRD]
4.57

// protein stability index lookup, key: DPNTAAGWLSVSDDLTSVTNHGYR [TRIM35]
4.31

// protein stability index lookup, key: AEGARPLRENVPRVIMIVTDGRPQ [MATN2]
3.56

// protein stability index lookup, key: PQDRYKAVWLIFFMLGLGTLLPWN [SLC29A1]
3.29

// protein stability index lookup, key: VSRLTDTTKFTGSHKERFDPSGKG [TPPP]
4.5

// protein stability index lookup, key: RFFLGDLCSRQDLYPALKGVNTVF [NSDHL]
2.14

// protein stability index lookup, key: LTLDLPTAPLYKDEKEQLIIPQVP [USP39]
3.92

// protein stability index lookup, key: PGETRRNSYPRADTGLFSRSKSGS [TRIM29]
5.01

----------
Test: protein stability index of a GFP-peptide fusion (GPS, HEK-293T) (PSI 1-6); higher = more stable
Details: treatment: DMSO; c terminus: a fixed tail appended
Attribute: protein stability index
Give only the figure.

Examples with answers:
orderedResidues: VEKEEEPDPEPPPVTPQVGEGRKS [SMG5]
reportedValue: 5.48

orderedResidues: TYVGALFNGLTLLLMAVVSMFTLP [RTN1]
reportedValue: 3

orderedResidues: LASYLEKVRQLERDNAELENLIRE [KRT33B]
reportedValue: 3.31

// protein stability index lookup, key: GQVIWGMSWAKLARQATNLKVNFF [FBXO39]
2.2

// protein stability index lookup, key: VEVLGPYEPLLSRVQAALVWERPA [RETREG3]
2.37

// protein stability index lookup, key: DMKAMSPENQEYFEKHRWPPVWYL [RHOBTB2]
2.47

// protein stability index lookup, key: LRYYYDKNIIHKTSGKRYVYRFVC [ETS2]
2.79
